assay: MRT in po dosed CD-1 mouse by LC/MS/MS analysis; type: ADME, organism-based; settings: in vivo
Please assign 0.0 whenever MRT is at or above 5 h, and 1.0 whenever it is below.

compound	class_name
[2H]c1c([2H])c(NC(=O)/C=C(C)/C=C/C=C(C)/C=C/C2=C(C)C([2H])(n3ccnc3)CCC2(C)C)c([2H])c([2H])c1F (racemic)	0.0

Query: Problem: For the compound [2H]c1nc([2H])n(C2([2H])CCC(C)(C)C(/C=C/C(C)=C/C=C/C(C)=C/C(=O)Nc3c([2H])c([2H])c(F)c([2H])c3[2H])=C2C)c1[2H] (racemic) , is MRT under 5 h?
Result: 0.0

Query: Problem: For the compound CC1=C(/C=C/C(C)=C/C=C/C(C)=C/C(=O)Nc2ccc(F)cc2)C(C)(C)CCC1n1ccnc1 (racemic; form 1) , is MRT under 5 h?
Result: 1.0

Query: Problem: For the compound [2H]c1c([2H])c(NC(=O)/C=C(C)/C=C/C=C(C)/C=C/C2=C(C)C(n3ccnc3)CCC2(C)C)c([2H])c([2H])c1F (racemic) , is MRT under 5 h?
Result: 1.0

Query: Problem: For the compound [2H]c1nc([2H])n(C2CCC(C)(C)C(/C=C/C(C)=C/C=C/C(C)=C/C(=O)Nc3c([2H])c([2H])c(F)c([2H])c3[2H])=C2C)c1[2H] (racemic) , is MRT under 5 h?
Result: 1.0

Query: Problem: For the compound [2H]c1nc([2H])n(C2CCC(C)(C)C(/C=C/C(C)=C/C=C/C(C)=C/C(=O)Nc3ccc(F)cc3)=C2C)c1[2H] (racemic) , is MRT under 5 h?
Result: 1.0

Query: Problem: For the compound [2H]c1nc([2H])n(C2([2H])CCC(C)(C)C(/C=C/C(C)=C/C=C/C(C)=C/C(=O)Nc3ccc(F)cc3)=C2C)c1[2H] (racemic) , is MRT under 5 h?
Result: 0.0

Query: Problem: For the compound [2H]C1(n2ccnc2)CCC(C)(C)C(/C=C/C(C)=C/C=C/C(C)=C/C(=O)Nc2ccc(F)cc2)=C1C (racemic) , is MRT under 5 h?
Result: 0.0

---

assay: AUC in po dosed CD-1 mouse by LC/MS/MS analysis; assay type: ADME, organism-based; set-up: route po; settings: in vivo; also: test concentration or dose not given here
Known AUC of a selection of molecules
Expressed in ng·h/mL, but write only the number.

The cases that follow already have their AUC on record.
molecule	AUC / ng·h/mL
[2H]c1c([2H])c(NC(=O)/C=C(C)/C=C/C=C(C)/C=C/C2=C(C)C(n3ccnc3)CCC2(C)C)c([2H])c([2H])c1F (racemic)	1730
[2H]c1c([2H])c(NC(=O)/C=C(C)/C=C/C=C(C)/C=C/C2=C(C)C([2H])(n3ccnc3)CCC2(C)C)c([2H])c([2H])c1F (racemic)	15500
CC1=C(/C=C/C(C)=C/C=C/C(C)=C/C(=O)Nc2ccc(F)cc2)C(C)(C)CCC1n1ccnc1 (racemic; form 1)	22800
[2H]c1nc([2H])n(C2CCC(C)(C)C(/C=C/C(C)=C/C=C/C(C)=C/C(=O)Nc3ccc(F)cc3)=C2C)c1[2H] (racemic)	1740
[2H]c1nc([2H])n(C2([2H])CCC(C)(C)C(/C=C/C(C)=C/C=C/C(C)=C/C(=O)Nc3ccc(F)cc3)=C2C)c1[2H] (racemic)	2700

AUC reading for [2H]C1(n2ccnc2)CCC(C)(C)C(/C=C/C(C)=C/C=C/C(C)=C/C(=O)Nc2ccc(F)cc2)=C1C (racemic) : 17600

AUC reading for [2H]c1nc([2H])n(C2CCC(C)(C)C(/C=C/C(C)=C/C=C/C(C)=C/C(=O)Nc3c([2H])c([2H])c(F)c([2H])c3[2H])=C2C)c1[2H] (racemic) : 2060

AUC reading for [2H]c1nc([2H])n(C2([2H])CCC(C)(C)C(/C=C/C(C)=C/C=C/C(C)=C/C(=O)Nc3c([2H])c([2H])c(F)c([2H])c3[2H])=C2C)c1[2H] (racemic) : 22600
